assay: Displacement of [125I]alpha-dendrotoxin from rat brain voltage-gated K channel after 60 mins by scintillation counting analysis
READOUT_NAME: pIC50
// pIC50 is dimensionless: -log10 of concentration (M)

Data request, read-out pIC50, for CC(C)(C)NS(=O)(=O)c1ccc(-c2sc(C(=O)N[C@H]3C[C@H](C(=O)O)C3)nc2CC2CCCCC2)c2ccccc12
9.66

----------
Molecular target: UniProtKB P0DMS8
Sequence (P0DMS8 whole entry): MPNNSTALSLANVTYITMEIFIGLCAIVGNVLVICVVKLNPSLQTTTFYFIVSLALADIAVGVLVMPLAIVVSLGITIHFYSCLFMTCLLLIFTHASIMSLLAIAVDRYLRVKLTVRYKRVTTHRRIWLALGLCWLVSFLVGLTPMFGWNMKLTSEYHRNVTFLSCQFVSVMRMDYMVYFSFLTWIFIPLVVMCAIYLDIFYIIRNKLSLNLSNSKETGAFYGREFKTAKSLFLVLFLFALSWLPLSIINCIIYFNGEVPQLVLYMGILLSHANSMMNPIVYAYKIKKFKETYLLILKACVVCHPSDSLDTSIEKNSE
Assay: Displacement of [125I]AB-MECA from human recombinant adenosine A3 receptor after 120 mins by scintillation counting analysis
READOUT_NAME: IC50
Reply with the number, then its unit.

# input compound: CC(C)(C)NS(=O)(=O)c1ccc(-c2sc(C(=O)N[C@H]3C[C@H](C(=O)O)C3)nc2CC2CCCCC2)c2ccccc12 ; wanted: its IC50
0.17 nM

----------
biological target: 5-hydroxytryptamine receptor 7 (Homo sapiens, UniProt P34969); experiment: Displacement of [3H]LSD from human recombinant 5-HT7 receptor after 120 mins by scintillation counting analysis
Sequence (P34969 whole entry): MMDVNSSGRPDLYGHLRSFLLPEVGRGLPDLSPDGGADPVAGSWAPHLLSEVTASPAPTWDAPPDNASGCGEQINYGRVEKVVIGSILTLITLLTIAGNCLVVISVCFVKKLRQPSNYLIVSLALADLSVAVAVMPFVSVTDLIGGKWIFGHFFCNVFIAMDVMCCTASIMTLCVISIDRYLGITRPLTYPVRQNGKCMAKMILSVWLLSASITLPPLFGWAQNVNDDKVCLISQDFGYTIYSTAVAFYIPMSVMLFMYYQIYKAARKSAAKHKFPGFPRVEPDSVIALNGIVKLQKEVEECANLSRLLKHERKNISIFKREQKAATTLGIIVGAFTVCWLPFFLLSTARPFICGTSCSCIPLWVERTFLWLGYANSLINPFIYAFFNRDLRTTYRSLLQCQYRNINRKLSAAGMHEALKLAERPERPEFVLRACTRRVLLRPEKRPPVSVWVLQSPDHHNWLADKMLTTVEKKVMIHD
READOUT_NAME: IC50 (nM)
Just the number please, in nM, no unit attached.

Name the reported IC50 value associated with the compound CC(C)(C)NS(=O)(=O)c1ccc(-c2sc(C(=O)N[C@H]3C[C@H](C(=O)O)C3)nc2CC2CCCCC2)c2ccccc12
0.39

----------
assay: Thermodynamic solubility of the compound in 30 mM phosphate buffer at 10 mM at pH 7 after 2 to 5 days by UV-HPLC analysis; type: physicochemical; conditions: read-out: Therm_solubility
Each entry below carries its recorded solubility thermodynamic at 10000 µM.

Guide cases for solubility thermodynamic at 10000 µM, answers given:
structure=CC(C)(C)NS(=O)(=O)c1ccc(-c2sc(C(=O)NCCN3CCOCC3)nc2CC2CCCCC2)c2ccccc12 readout_name="solubility thermodynamic at 10000 µM" measurement="< 4 µM"
structure=CC(C)(C)NS(=O)(=O)c1ccc(-c2sc(C(=O)N[C@H]3C[C@H](C(=O)O)C3)nc2CC2CCCCC2)c2c1CCCC2 readout_name="solubility thermodynamic at 10000 µM" measurement="< 1 µM"
structure=CC(C)(C)NS(=O)(=O)c1ncc(-c2sc(C(=O)N[C@H]3C[C@H](C(=O)O)C3)nc2CC2CCCCC2)c2ccccc12 readout_name="solubility thermodynamic at 10000 µM" measurement="13 µM"
structure=C[C@H](NS(=O)(=O)c1ccc(-c2sc(C(=O)NCC(C)(C)O)nc2CC2CC2)c2ccccc12)C(F)(F)F readout_name="solubility thermodynamic at 10000 µM" measurement="< 4 µM"

Look at this compound and give its reported solubility thermodynamic at 10000 µM. C[C@H](NS(=O)(=O)c1ccc(-c2sc(C(=O)NCC(C)(C)O)nc2COC(C)(C)C)c(Cl)c1Cl)C(F)(F)F
12 µM

Returns the measured solubility thermodynamic at 10000 µM for the input compound. Input: CC(C)(O)CNC(=O)c1nc(CC2CCCCC2)c(-c2cnc(S(=O)(=O)NC(C)(C)C)c3ccccc23)s1
< 4 µM

Origin of measurements: ChEMBL document CHEMBL4118122
